Attribute: IC50
- Test system: KRasG12C (Homo sapiens, UniProt P01116, G12C)
- Construct: biotin (biotinylated); made in house
- Sequence (P01116 1-188 isoform P01116-2 G12C): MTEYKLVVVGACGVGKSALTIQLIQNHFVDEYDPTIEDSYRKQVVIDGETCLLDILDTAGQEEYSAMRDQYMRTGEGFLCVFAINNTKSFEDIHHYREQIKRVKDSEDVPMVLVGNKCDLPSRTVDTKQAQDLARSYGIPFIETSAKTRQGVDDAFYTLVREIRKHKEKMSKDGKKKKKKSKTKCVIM
- Method summary: KRasG12C functional assay (HTRF, SOS-mediated nucleotide exchange / Raf RBD binding)
- Format: biochemical
- Assay conditions: KRasG12C functional assay IC50 value, 4 hrs incubation with GDP loaded biotinylated KRasG12C; single experiment or average of two or more
State the result as a value with its unit after it.

{"columns": ["Compound", "Data value"],
 "data": [
  ["C=CC(=O)N1C[C@H]2CCOc3c(Cl)c(-c4c(O)cccc4F)c(F)c4ncnc(c34)N2C[C@H]1C (single isomer, unassigned) [Example 40]", "2540 nM"],
  ["C=CC(=O)N1C[C@@H]2CCOc3c(Cl)c(-c4c(O)cccc4F)c(F)c4ncnc(c34)N2C[C@@H]1C (single isomer, unassigned) [Example 43]", "2900 nM"],
  ["C=CC(=O)N1C[C@H]2CCOc3c(Cl)c(-c4c(O)cccc4F)c(F)c4ncnc(c34)N2C[C@@H]1C (single isomer, unassigned) [Example 32]", "3130 nM"],
  ["C=CC(=O)N1C[C@H]2CCOc3c(Cl)c(-c4c(O)cccc4F)c(F)c4ncnc(c34)N2C[C@@H]1C (single isomer, unassigned) [Example 33]", "229 nM"]
]}

Kindly note the recorded IC50 for C=CC(=O)N1C[C@@H]2CCOc3c(Cl)c(-c4c(O)cccc4F)c(F)c4ncnc(c34)N2C[C@H]1C (single isomer, unassigned) [Example 38] , which is 3650 nM

According to the records, this compound C=CC(=O)N1C[C@H]2CCOc3c(Cl)c(-c4c(O)cccc4F)c(F)c4ncnc(c34)N2C[C@H]1C (single isomer, unassigned) [Example 41] displays IC50 of 674 nM

IC50 reading for C=CC(=O)N1C[C@@H]2CCOc3c(Cl)c(-c4c(O)cccc4F)c(F)c4ncnc(c34)N2C[C@H]1C (single isomer, unassigned) [Example 39] : 3 nM

Lab book: IC50 of C=CC(=O)N1C[C@@H]2CCOc3c(Cl)c(-c4c(O)cccc4F)c(F)c4ncnc(c34)N2C[C@@H]1C (single isomer, unassigned) [Example 42] noted as 111 nM
